Value source: patent US5958923A

# TARGET OF ASSAY: D2 receptor (Bos taurus, UniProt P20288)
# Construct: Nucleus caudatus was removed from bovine brain
# Sequence (P20288 whole entry): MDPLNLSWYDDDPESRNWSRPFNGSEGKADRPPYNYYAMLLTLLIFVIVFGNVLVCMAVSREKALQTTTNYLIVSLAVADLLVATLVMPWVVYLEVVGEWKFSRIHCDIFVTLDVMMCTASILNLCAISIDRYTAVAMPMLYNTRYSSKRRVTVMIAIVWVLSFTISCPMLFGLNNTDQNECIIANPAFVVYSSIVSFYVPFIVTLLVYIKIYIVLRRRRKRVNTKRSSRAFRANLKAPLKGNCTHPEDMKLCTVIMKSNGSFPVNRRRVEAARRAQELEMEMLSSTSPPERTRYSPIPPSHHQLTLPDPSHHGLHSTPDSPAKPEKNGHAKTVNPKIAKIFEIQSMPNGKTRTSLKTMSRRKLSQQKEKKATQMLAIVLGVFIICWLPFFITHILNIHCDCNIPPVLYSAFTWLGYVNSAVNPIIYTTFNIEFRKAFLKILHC
# TEST PROTOCOL: D2 binding assay (3H-spiperone, D2low, bovine nucleus caudatus membranes)
# COND: 0.2 nmol/l 3H-spiperone (D2low), 25° C., 60 min
READOUT LABEL: Ki (µM)

COMPOUND	Ki (µM)
CC(CSc1nnc(N)s1)CN1CCN(c2cccc(C(F)(F)F)c2)CC1 (stereo not shown)	0.402

A = Nc1nnc(SCC=CCN2CCN(c3cccc(C(F)(F)F)n3)CC2)s1
B = CC(C)c1cccc(N2CCN(CCCCCCCSc3nnc(N)s3)CC2)c1
C = CC(C)(C)c1cc(N2CCN(CCCSc3nnc(N)s3)CC2)nc(C(C)(C)C)n1
Endpoint returns the given compounds ordered by ascending Ki. Please list the labels in the order you were asked to rank them.
A, C, B
